Test system: Jurkat
Assay: mean cell size (FSC-A) relative to DMSO control (fraction of control); higher = larger cells
Conditions: 48 h
Structures can show the parent of a compound that is named as a salt.
Overview of reported mean cell size across a group of molecules:

1. CN(C)C(=O)C(CCN1CCC(O)(c2ccc(Cl)cc2)CC1)(c1ccccc1)c1ccccc1 [Loperamide·HCl] (concentration: 25 µM) ... 0.988
2. CCN1CC(CCN2CCOCC2)C(c2ccccc2)(c2ccccc2)C1=O (stereo not drawn) [Doxapram·HCl] (concentration: 25 µM) ... 0.928

# next molecule below
*Q* Given CO[C@H]1O[C@@H]2O[C@@]3(C)CC[C@H]4[C@H](C)CC[C@@H]([C@H]1C)[C@@]24OO3 [Artemether] (concentration: 25 µM) , respond with its mean cell size.
*A* 0.912

----------
Tested on: Jurkat
Test: cell count relative to DMSO control (fraction of control); higher = more cells (less growth inhibition)
Conditions: 48 h
Structures can show the parent of a compound that is named as a salt.
# label = condition met if cell count >= 0.7 else condition not met

*Q* Does the reported cell count for Cn1c(=O)c2nc[nH]c2n(C)c1=O [Theophylline] (concentration: 25 µM) fall at or above the 0.7 mark?
*A* condition met

*Q* Does the reported cell count for O=c1[nH]c(=O)n([C@H]2C[C@H](O)[C@@H](CO)O2)cc1I [Idoxuridine] (concentration: 25 µM) fall at or above the 0.7 mark?
*A* condition not met

*Q* Does the reported cell count for CCCN(CCC)CCc1cccc2c1CC(=O)N2 [Ropinirole·HCl] (concentration: 25 µM) fall at or above the 0.7 mark?
*A* condition met

*Q* Does the reported cell count for S=c1[nH]cnc2nc[nH]c12 [Mercaptopurine Hydrate] (concentration: 25 µM) fall at or above the 0.7 mark?
*A* condition met

*Q* Does the reported cell count for CN1CCC[C@H]1c1cccnc1 [Nicotine] (concentration: 25 µM) fall at or above the 0.7 mark?
*A* condition not met

*Q* Does the reported cell count for CC[C@@H](CO)NCCN[C@@H](CC)CO [Ethambutol Dihydrochloride] (concentration: 25 µM) fall at or above the 0.7 mark?
*A* condition met

----------
Overview of reported mean cell size across a group of compounds:
System: Jurkat
Experiment: mean cell size (FSC-A) relative to DMSO control (fraction of control); higher = larger cells
Conditions: 48 h
Counter-ions that a name gives are not always drawn.
The answer should be a number; do not append a unit.

Recorded mean cell size, per entry:
1. CNCCCC1c2ccccc2C=Cc2ccccc21 [Protriptyline·HCl] (concentration: 25 µM) ... 1.05
2. CCCCCOc1ccc(-c2cc(-c3ccc(C(=O)N[C@H]4C[C@@H](O)[C@@H](O)NC(=O)[C@@H]5[C@@H](O)[C@@H](C)CN5C(=O)[C@H]([C@H](O)CC(N)=O)NC(=O)[C@H]([C@H](O)[C@@H](O)c5ccc(O)c(OS(=O)(=O)O)c5)NC(=O)[C@@H]5C[C@@H](O)CN5C(=O)[C@H]([C@@H](C)O)NC4=O)cc3)no2)cc1 [Micafungin] (concentration: 25 µM) ... 0.993
3. CNC(=O)c1cnn(-c2nc(N)c3ncn([C@@H]4O[C@H](CO)[C@@H](O)[C@H]4O)c3n2)c1 [Regadenoson] (concentration: 25 µM) ... 0.991
4. CCCCN1C[C@H](O)[C@@H](O)[C@H](O)[C@H]1CO [Miglustat (N-Butyldeoxynojirimycin·HCl)] (concentration: 25 µM) ... 0.976

# next compound below
*Q* Given C[C@@H]1NC(=O)[C@@H](N)CNC(=O)[C@H](C2CCNC(=N)N2)NC(=O)/C(=C/NC(N)=O)NC(=O)[C@H](CNC(=O)CC(N)CCCN)NC1=O.N=C1NCC[C@H]([C@@H]2NC(=O)/C(=C/NC(N)=O)NC(=O)[C@H](CNC(=O)C[C@@H](N)CCCN)NC(=O)[C@H](CO)NC(=O)[C@@H](N)CNC2=O)N1 [Capreomycin Sulfate] (concentration: 25 µM) , respond with its mean cell size.
*A* 0.97

----------
Tested on: Jurkat
Experiment: cell count relative to DMSO control (fraction of control); higher = more cells (less growth inhibition)
Conditions: 48 h
Structures can show the parent of a compound that is named as a salt.
# label = MET if cell count >= 0.8 else NOT MET

1. Cc1ccc(C(=O)c2cc(O)c(O)c([N+](=O)[O-])c2)cc1 [Tolcapone] (concentration: 25 µM) ... MET

*Q* Does the reported cell count for COc1ccc2[nH]c([S@@+]([O-])Cc3ncc(C)c(OC)c3C)nc2c1 [Esomeprazole Potassium] (concentration: 25 µM) fall at or above the 0.8 mark?
*A* MET

*Q* Does the reported cell count for CC[C@@]1(O)C(=O)OCc2c1cc1n(c2=O)Cc2cc3c(CN(C)C)c(O)ccc3nc2-1 [Topotecan·HCl] (concentration: 25 nM) fall at or above the 0.8 mark?
*A* NOT MET

*Q* Does the reported cell count for NC(=O)C(c1ccccc1)(c1ccccc1)[C@@H]1CCN(CCc2ccc3c(c2)CCO3)C1 [Darifenacin·HBr] (concentration: 25 µM) fall at or above the 0.8 mark?
*A* NOT MET

*Q* Does the reported cell count for N[C@@H](Cc1cc(I)c(Oc2ccc(O)c(I)c2)c(I)c1)C(=O)O [Liothyronine·Na] (concentration: 25 µM) fall at or above the 0.8 mark?
*A* NOT MET

*Q* Does the reported cell count for COC(=O)C1=C(C)NC(C)=C(C(=O)OCC(C)C)C1c1ccccc1[N+](=O)[O-] (stereo not given) [Nisoldipine] (concentration: 25 µM) fall at or above the 0.8 mark?
*A* NOT MET

*Q* Does the reported cell count for COc1ccc2cc(CCC(C)=O)ccc2c1 [Nabumetone] (concentration: 25 µM) fall at or above the 0.8 mark?
*A* MET

----------
Test system: Jurkat
Experiment: cell count relative to DMSO control (fraction of control); higher = more cells (less growth inhibition)
Settings: 48 h
Where a name gives a salt, the structure may show the parent alone.
# label = Condition met if cell count >= 0.7 else Condition not met

1) N=C(N)c1ccc(OCCCCCOc2ccc(C(=N)N)cc2)cc1 [Pentamidine Isethionate] (concentration: 25 µM) ... Condition not met
2) CNC(=O)c1cc(Oc2ccc(NC(=O)Nc3ccc(Cl)c(C(F)(F)F)c3)cc2)ccn1 [Sorafenib Tosylate] (concentration: 2.5 µM) ... Condition met

*Q* Does the reported cell count for NCC(=O)CCC(=O)O [Aminolevulinic Acid·HCl] (concentration: 25 µM) fall at or above the 0.7 mark?
*A* Condition not met

*Q* Does the reported cell count for CC(=O)O[C@]1(C(C)=O)CC[C@H]2[C@@H]3C[C@H](C)C4=CC(=O)CC[C@]4(C)[C@H]3CC[C@@]21C [Medroxyprogesterone Acetate] (concentration: 25 µM) fall at or above the 0.7 mark?
*A* Condition not met

*Q* Does the reported cell count for CC1=C(/C=C/C(C)=C/C=C/C(C)=C/C(=O)O)C(C)(C)CCC1 [Tretinoin] (concentration: 25 µM) fall at or above the 0.7 mark?
*A* Condition met

*Q* Does the reported cell count for NC(=O)N[C@@H](CCC(=O)O)C(=O)O [Carglumic Acid] (concentration: 25 µM) fall at or above the 0.7 mark?
*A* Condition met

*Q* Does the reported cell count for NNCCc1ccccc1 [Phenelzine Sulfate] (concentration: 25 µM) fall at or above the 0.7 mark?
*A* Condition met

*Q* Does the reported cell count for NS(=O)(=O)c1cc2c(cc1C(F)(F)F)NC(Cc1ccccc1)NS2(=O)=O (centres undefined) [Bendroflumethiazide] (concentration: 25 µM) fall at or above the 0.7 mark?
*A* Condition met

*Q* Does the reported cell count for Clc1ccc2c(c1)C(N1CCNCC1)=Nc1ccccc1O2 [Amoxapine] (concentration: 25 µM) fall at or above the 0.7 mark?
*A* Condition not met

*Q* Does the reported cell count for CC(C)(C)NC(=O)[C@@H]1CN(Cc2cccnc2)CCN1C[C@@H](O)C[C@@H](Cc1ccccc1)C(=O)N[C@H]1c2ccccc2C[C@H]1O [Indinavir] (concentration: 25 µM) fall at or above the 0.7 mark?
*A* Condition not met

*Q* Does the reported cell count for NC(=O)Cc1cccc(C(=O)c2ccccc2)c1N [Nepafenac] (concentration: 25 µM) fall at or above the 0.7 mark?
*A* Condition met

*Q* Does the reported cell count for Cc1onc(-c2c(Cl)cccc2Cl)c1C(=O)N[C@@H]1C(=O)N2[C@@H]1SC(C)(C)[C@@H]2C(=O)O [Dicloxacillin·Na Salt Monohydrate] (concentration: 25 µM) fall at or above the 0.7 mark?
*A* Condition met

*Q* Does the reported cell count for C=C[C@H]1CN2CC[C@H]1C[C@@H]2[C@@H](O)c1ccnc2ccc(OC)cc12 [Quinidine·HCl·H2O] (concentration: 25 µM) fall at or above the 0.7 mark?
*A* Condition not met

*Q* Does the reported cell count for CCC(=O)NCC[C@@H]1CCc2ccc3c(c21)CCO3 [Ramelteon] (concentration: 25 µM) fall at or above the 0.7 mark?
*A* Condition met
